# Tested on: [Candida] zeylanoides
# Protocol Text: Antifungal activity against Candida zeylanoides NRRL Y-112
# Assay type: functional
# Condition: Dujonia zeylanoides; read-out: MIC
Starred links: 1 amine or outer side, 2 acyl side, 3 side chain; linkers in the order of their positions; H or OH if unused. Positions of bridges follow the written chain, without caps; N, C: chain ends. Non-standard residues stand in square brackets, D forms with d. Residues, ends and D or L forms follow the SMILES beside them. *: point of attachment. pTerphenylCO(4''-OnC5H11) = CCCCCOc1ccc(-c2ccc(-c3ccc(C(=O)*)cc3)cc2)cc1; Pro(cis-4-guanidino) = NC(N)=N[C@@H]1CN[C@H](C(=O)O)C1; hTyr(3-COCH2NH2) = NCC(=O)c1cc(CC[C@H](N)C(=O)O)ccc1O; X7 = CCCCCCCCOc1ccc(-c2ccc(-c3ccc(C(=O)*)cc3)cc2)cc1; X3 = CCCCCCCCOc1ccc(N2CCN(c3ccc(C(=O)*)cc3)CC2)cc1; X4 = NCCC(=O)c1cc(CC[C@H](N[*:1])C(=O)[*:2])ccc1O; Pro(4S-NH2) = N[C@@H]1CN[C@H](C(=O)O)C1; Hyp = O=C(O)[C@@H]1C[C@@H](O)CN1; Orn = NCCC[C@H](N)C(=O)O
Parameter: MIC (µg/mL)

| Molecule | Endpoint Value |
| --- | --- |
| CCCCCOc1ccc(-c2ccc(-c3ccc(C(=O)N[C@H]4CCCNC(=O)[C@@H]5C[C@H](N=C(N)N)CN5C(=O)[C@H]([C@@H](C)O)NC(=O)[C@H](CCc5ccc(O)c(C(=O)CCN)c5)NC(=O)[C@@H]5C[C@@H](O)CN5C(=O)[C@H]([C@@H](C)O)NC4=O)cc3)cc2)cc1 ({pTerphenylCO(4''-OnC5H11)}-[Orn]T[Hyp][X4]T[Pro(cis-4-guanidino)]; lactam 1-C) | 0.39 |
| CCCCCCCCOc1ccc(-c2ccc(-c3ccc(C(=O)N[C@H]4CCCNC(=O)[C@@H]5C[C@H](N)CN5C(=O)[C@H]([C@@H](C)O)NC(=O)[C@H](CCc5ccc(O)c(C(=O)CN)c5)NC(=O)[C@@H]5CCCN5C(=O)[C@H]([C@@H](C)O)NC4=O)cc3)cc2)cc1 (X7-[Orn]TP[hTyr(3-COCH2NH2)]T[Pro(4S-NH2)]; lactam 1-C) | 0.78 |
| CCCCCCCCOc1ccc(N2CCN(c3ccc(C(=O)N[C@H]4CCCNC(=O)[C@@H]5C[C@H](N)CN5C(=O)[C@H]([C@@H](C)O)NC(=O)[C@H](CCc5ccc(O)c(C(=O)CN)c5)NC(=O)[C@@H]5C[C@@H](O)CN5C(=O)[C@H]([C@@H](C)O)NC4=O)cc3)CC2)cc1 (X3-[Orn]T[Hyp][hTyr(3-COCH2NH2)]T[Pro(4S-NH2)]; lactam 1-C) | 0.1 |

###

Parameter: MIC. Scope: all listed entries.
# Tested on: [Candida] zeylanoides
# Protocol Text: Antifungal activity against Candida zeylanoides NRRL Y-112
# Assay type: functional
# Condition: Dujonia zeylanoides; read-out: MIC
Starred links: 1 amine or outer side, 2 acyl side, 3 side chain; linkers in the order of their positions; H or OH if unused. Positions of bridges follow the written chain, without caps; N, C: chain ends. Non-standard residues stand in square brackets, D forms with d. Residues, ends and D or L forms follow the SMILES beside them. *: point of attachment. pTerphenylCO(4''-OnC5H11) = CCCCCOc1ccc(-c2ccc(-c3ccc(C(=O)*)cc3)cc2)cc1; Pro(cis-4-guanidino) = NC(N)=N[C@@H]1CN[C@H](C(=O)O)C1; hTyr(3-COCH2NH2) = NCC(=O)c1cc(CC[C@H](N)C(=O)O)ccc1O; X5 = CCCCCCCCN1CCN(c2ccc(-c3ccc(C(=O)*)cc3)cc2)CC1; X6 = NCC(=O)[C@H]1C[C@@H](C(=O)[*:2])N([*:1])C1; Hyp = O=C(O)[C@@H]1C[C@@H](O)CN1; Orn = NCCC[C@H](N)C(=O)O

| Compound | Target Desc | MIC [µg/mL] |
| --- | --- | --- |
| CCCCCCCCN1CCN(c2ccc(-c3ccc(C(=O)N[C@H]4CCCNC(=O)[C@@H]5C[C@H](N=C(N)N)CN5C(=O)[C@H]([C@@H](C)O)NC(=O)[C@H](CCc5ccc(O)c(C(=O)CN)c5)NC(=O)[C@@H]5C[C@@H](O)CN5C(=O)[C@H]([C@@H](C)O)NC4=O)cc3)cc2)CC1 (X5-[Orn]T[Hyp][hTyr(3-COCH2NH2)]T[Pro(cis-4-guanidino)]; lactam 1-C) | [Candida] zeylanoides | 0.2 |
| CCCCCCCCN1CCN(c2ccc(-c3ccc(C(=O)N[C@H]4CCCNC(=O)[C@@H]5C[C@H](C(=O)CN)CN5C(=O)[C@H]([C@@H](C)O)NC(=O)[C@H](CCc5ccc(O)c(C(=O)CN)c5)NC(=O)[C@@H]5CCCN5C(=O)[C@H]([C@@H](C)O)NC4=O)cc3)cc2)CC1 (X5-[Orn]TP[hTyr(3-COCH2NH2)]T[X6]; lactam 1-C) | [Candida] zeylanoides | 0.2 |
| CCCCCOc1ccc(-c2ccc(-c3ccc(C(=O)N[C@H]4CCCNC(=O)[C@@H]5C[C@H](N=C(N)N)CN5C(=O)[C@H]([C@@H](C)O)NC(=O)[C@H](CCc5ccc(O)c(C(=O)CN)c5)NC(=O)[C@@H]5CCCN5C(=O)[C@H]([C@@H](C)O)NC4=O)cc3)cc2)cc1 ({pTerphenylCO(4''-OnC5H11)}-[Orn]TP[hTyr(3-COCH2NH2)]T[Pro(cis-4-guanidino)]; lactam 1-C) | [Candida] zeylanoides | 0.39 |
